# Test system: pepsin
# Assay Explanation: In vitro digestion stability, pepsin
# Type: in vitro ADME
# Measurement Setup: simulated gastrointestinal digestion, compared with before digestion, peptide 0.5 mg/mL (TEAC), 1.0 mg/mL (superoxide), n = 3
Residues, ends and D or L forms follow the SMILES beside them.
Quantity: TEAC and superoxide anion radical scavenging activity after digestion by pepsin

• N=C(N)NCCC[C@H](N)C(=O)N[C@@H](CC(N)=O)C(=O)N[C@@H](Cc1ccccc1)C(=O)O [peptide 3, Arg-Asn-Phe] (H-Arg-Asn-Phe-OH) = insignificant changes
• N[C@@H](Cc1c[nH]c2ccccc12)C(=O)N[C@@H](Cc1ccccc1)C(=O)O [peptide 5, Trp-Phe] (H-Trp-Phe-OH) = insignificant changes
